Attribute: koff
target: T1, cyno CD33 extracellular domain (Cynomolgus/Rhesus (cyno)); test: SPR, Fab captured, 37C;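 note: surface plasmon resonance with Fabs captured on anti-Fab surface, soluble monomeric CD33 as analyte at several concentrations, double-referenced 1:1 model fit, KD as koff/kon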
T1 construct: soluble monomeric ECD; also called cyno CD33 ECD
Record the value in s⁻¹, omitting the unit from your answer.

# count of solved cases: 2
>  <binder>
ADI-11835 Fab (Fab, V domains shown, Fab fragment; also called Ab10; I35) VH: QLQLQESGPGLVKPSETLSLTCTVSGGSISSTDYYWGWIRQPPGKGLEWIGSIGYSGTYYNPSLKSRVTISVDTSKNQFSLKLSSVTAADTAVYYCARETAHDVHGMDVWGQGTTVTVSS VL: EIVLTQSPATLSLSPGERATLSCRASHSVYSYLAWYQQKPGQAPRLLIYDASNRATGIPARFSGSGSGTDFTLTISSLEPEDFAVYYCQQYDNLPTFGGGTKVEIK

>  <reported metric>
koff

>  <unit descriptor>
s⁻¹

>  <recorded measurement>
0.0189

$$$$
>  <binder>
ADI-10177 Fab (Fab, V domains shown, Fab fragment; also called Ab2) VH: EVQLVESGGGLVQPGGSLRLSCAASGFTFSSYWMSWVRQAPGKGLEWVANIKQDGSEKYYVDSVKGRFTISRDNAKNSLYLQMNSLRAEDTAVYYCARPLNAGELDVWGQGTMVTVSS VL: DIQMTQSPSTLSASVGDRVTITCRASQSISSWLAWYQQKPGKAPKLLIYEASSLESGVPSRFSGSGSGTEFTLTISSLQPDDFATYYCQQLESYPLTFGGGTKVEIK

>  <reported metric>
koff

>  <unit descriptor>
s⁻¹

>  <recorded measurement>
0.00754

$$$$

Consider the record given below.
Ask: Given the entry ADI-11776 Fab (Fab, V domains shown, Fab fragment; also called Ab3; H76) VH: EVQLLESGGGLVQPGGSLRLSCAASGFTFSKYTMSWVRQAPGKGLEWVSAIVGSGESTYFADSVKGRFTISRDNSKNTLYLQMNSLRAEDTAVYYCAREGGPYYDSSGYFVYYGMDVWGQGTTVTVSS VL: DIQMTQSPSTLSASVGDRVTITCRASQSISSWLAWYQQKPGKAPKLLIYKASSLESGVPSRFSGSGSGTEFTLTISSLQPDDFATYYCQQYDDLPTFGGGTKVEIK , report its measured koff.
Result: 0.00472

This collection of values is drawn from patent US20220380459A1.
